Test: Inhibition of HIV reverse transcriptase
Set-up: species or system Human immunodeficiency virus
parameterMeasured: pIC50

{"compound": "CC(C)=CCN1Cc2c(C#N)ccc3nc(O)n(c23)C[C@@H]1C", "measured": 5.94}
{"compound": "CCCN1CCn2c(=S)[nH]c3cccc(c32)C1C (configuration not stated)", "measured": 5.61}
{"compound": "CC(C)=CCN1[C@H](C)Cn2c(=S)[nH]c3cc(Cl)cc(c32)[C@H]1C", "measured": 6.32}
{"compound": "CCCN1Cc2cccc3[nH]c(=O)n(c23)CC1C (configuration not stated)", "measured": 4.22}

The reported value for C=C(C)CN1Cc2cccc3[nH]c(=O)n(c23)CC1CC (configuration not stated) in terms of pIC50 is 4.3

Field pIC50 (entry `CC(C)=CCN1CCn2c(=S)[nH]c3ccc(Cl)c(c32)C1` ) reads 7.34

Lab book: pIC50 of CC(C)=CCN1[C@@H](C)Cn2c(=S)[nH]c3cccc(c32)[C@@H]1C (relative stereo) noted as 7.38

Record summary for CC(C)=CCN1[C@H](C)c2cccc3[nH]c(=S)n(c23)C[C@@H]1C (relative stereo) : reported pIC50 = 5.94

For this compound ( CC(C)=CCN1CCn2c(=S)[nH]c3ccc(Cl)c(c32)C1C (configuration not stated) ), measured pIC50 is 7.92

So, `CC(C)=CCN1Cc2c(I)ccc3[nH]c(=O)n(c23)C[C@@H]1C` ? Its pIC50 was 7.06

Record summary for `C=C(C)CN1Cc2cccc3[nH]c(=O)n(c23)CC1(C)C` : reported pIC50 = 4.64

For this compound ( `COc1ccc2[nH]c(=S)n3c2c1CN(CC=C(C)C)[C@@H](C)C3` ), measured pIC50 is 7.47

Field pIC50 (entry `C#Cc1ccc2nc(S)n3c2c1CN(CC=C(C)C)[C@@H](C)C3` ) reads 7.53

The compound listed as C=C(C)CN1Cc2cccc3[nH]c(=O)n(c23)C(CCC)C1 (configuration not stated) shows pIC50 equal to 4.32

For `C=CCN1Cc2cccc3[nH]c(=O)n(c23)C[C@@H]1C` the compound record lists pIC50 as 4.15

Form: compound = CC(C)=CCN1CCn2c(=O)[nH]c3ccc(Cl)c(c32)C1C (configuration not stated) ; pIC50 = 6.84

* * *

Assay: Inhibition of HIV reverse transcriptase
Design: species or system Human immunodeficiency virus
parameterMeasured: pIC50
Response field accepts a number only; no unit should be typed.

{"compound": "CC(C)=CCN1Cc2cccc3[nH]c(=S)n(c23)[C@H](C)[C@@H]1C (relative stereo)", "measured": 5.65}
{"compound": "CC(C)=CCN1Cc2cccc3[nH]c(=S)n(c23)C[C@@H]1C (stereo in doubt; 51)", "measured": 7.36}
{"compound": "C=C(C)CN1Cc2cccc3[nH]c(=S)n(c23)C[C@@H]1C", "measured": 7.58}
{"compound": "CC(C)=CCN1Cc2cccc3[nH]c(=O)n(c23)CC1C(C)C (stereo unspecified)", "measured": 5}
{"compound": "C=C(C)CN1CCn2c(=O)[nH]c3cccc(c32)C1", "measured": 4.33}

Switching to the query record.
Record summary for `C/C=C1/C[C@H]2Cn3c(=S)[nH]c4cc(Cl)cc(c43)CN2C1` : reported pIC50 = 5.42

Recorded values, source ChEMBL document CHEMBL1157019.
